Molecular target: human NaPi-IIb (Homo sapiens)
Construct: expressed in transfected cells
Sequence (O95436 whole entry): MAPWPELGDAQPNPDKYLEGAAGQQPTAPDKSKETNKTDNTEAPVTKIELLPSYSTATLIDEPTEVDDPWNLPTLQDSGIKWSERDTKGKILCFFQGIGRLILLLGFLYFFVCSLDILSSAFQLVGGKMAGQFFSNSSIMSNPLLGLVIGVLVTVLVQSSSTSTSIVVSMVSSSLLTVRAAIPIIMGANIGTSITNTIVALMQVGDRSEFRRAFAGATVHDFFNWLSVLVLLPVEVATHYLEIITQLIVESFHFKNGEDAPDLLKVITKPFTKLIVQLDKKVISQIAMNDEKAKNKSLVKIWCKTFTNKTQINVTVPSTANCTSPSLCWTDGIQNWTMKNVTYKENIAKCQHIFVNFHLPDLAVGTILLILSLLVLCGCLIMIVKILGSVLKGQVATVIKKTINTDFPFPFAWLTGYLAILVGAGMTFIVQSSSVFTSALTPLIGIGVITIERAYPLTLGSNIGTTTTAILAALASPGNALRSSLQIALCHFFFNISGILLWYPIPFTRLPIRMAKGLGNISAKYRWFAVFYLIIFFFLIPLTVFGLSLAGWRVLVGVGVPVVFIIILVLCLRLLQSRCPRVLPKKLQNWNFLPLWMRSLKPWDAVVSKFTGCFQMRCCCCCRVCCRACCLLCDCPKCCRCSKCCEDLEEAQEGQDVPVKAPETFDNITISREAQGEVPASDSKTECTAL
Assay: Inhibitory effect on 33PO4 uptake into human NaPi-IIb-expressing CHO cells
Assay type: cell-based
Conditions: read-out: IC50
Method: Test Example 2: Inhibitory Effect on PO4 Uptake into Human NaPi-IIb-Expressing Cell CHO cells were transfected with human NaPi-IIb expression plasmids, and a stably human NaPi-IIb-expressing cell line was obtained using G418. The human NaPi-IIb-expressing cells were inoculated to a 96-well plate and incubated overnight in a CO2 incubator. […] After washing with ice-cold buffer A, a liquid scintillator was added to each reaction mixture, and the amount of ^33PO4 uptake was measured using TopCount.

# compound, IC50 (µM)
data = [
    ("CN1N(Cc2cccc(F)c2F)C(=O)C(C(=O)Nc2ccc(Cl)cc2-c2ccc(C(F)(F)F)nc2)=C(O)C12CCC2 [Example 256]", 4.4),
    ("CN1N(Cc2ccc(OCCN3C4CCC3COC4)c(F)c2F)C(=O)C(C(=O)Nc2ccc(C(F)(F)F)cc2-c2cc(C(F)(F)F)ncn2)=C(O)C12CCC2 [Example 340]", 10),
    ("C[C@]12CCCN1N(Cc1ccc(OCCN3CCOCC3)c(F)c1F)C(=O)C(C(=O)Nc1ccc(C(F)(F)F)nc1-c1ccccc1OC(F)(F)F)=C2O [Example 59]", 7.4),
]

---

Target: human NaPi-IIb (Homo sapiens)
Construct: expressed in transfected cells
Assay: Inhibitory effect on 33PO4 uptake into human NaPi-IIb-expressing CHO cells
Assay type: cell-based
Settings: read-out: IC50

# structure.smiles, u, IC50
measured = [
    ("C[C@]12CCCN1N(Cc1cccc(F)c1F)C(=O)C(C(=O)Nc1ccc(Cl)cn1)=C2O", "µM", 6.7),
    ("COc1cc(C)c(-c2cc(C(F)(F)F)ccc2NC(=O)C2=C(O)[C@@]3(C)CCCN3N(Cc3cccc(F)c3F)C2=O)cn1", "µM", 12.5),
    ("Cc1cccc(CN2C(=O)C(C(=O)Nc3ccc(C(F)(F)F)cc3-c3ccc(C(F)(F)F)nc3)=C(O)[C@@]3(C)CCCN23)c1F", "µM", 1.6),
    ("C[C@]12CCCN1N(Cc1cccc(F)c1)C(=O)C(C(=O)Nc1ccc(C(F)(F)F)cc1-c1cc(C(F)(F)F)ncn1)=C2O", "µM", 7),
]

---

Target: human NaPi-IIb (Homo sapiens)
Construct: expressed in transfected cells
Experiment: Inhibitory effect on 33PO4 uptake into human NaPi-IIb-expressing CHO cells
Assay type: cell-based
Settings: read-out: IC50 against 33PO4 uptake into human NaPi-IIb-expressing cells
API: label(entry) gives fulfilled if the entry's IC50 is strictly smaller than 8 µM; on equality or larger values it gives not fulfilled.

# compound, discrete.label
rows = [
    ("CCN(CCN(C)CCOC)c1ccc(CN2C(=O)C(C(=O)Nc3ccc(C(F)(F)F)cc3-c3cc(C(F)(F)F)ncn3)=C(O)C3(CCCC3)N2C)c(F)c1F", "not fulfilled"),
    ("COCCN(C)CCOc1ccc(CN2C(=O)C(C(=O)Nc3ccc(C(F)(F)F)cc3-c3ncnc(C(F)(F)F)c3C)=C(O)C3(CCCC3)N2C)c(F)c1F", "fulfilled"),
    ("CN(CCOc1ccc(CN2C(=O)C(C(=O)Nc3ccc(C(F)(F)F)cc3-c3cc(C(F)(F)F)ncn3)=C(O)C3(CCCC3)N2C)c(F)c1F)C1CCOC1 (stereo not shown)", "not fulfilled"),
    ("CN1N(Cc2ccc(OCCCCCOC[C@H](O)CO)c(F)c2F)C(=O)C(C(=O)Nc2ccc(C(F)(F)F)cc2-c2ccc(C(F)(F)F)nc2)=C(O)C12CCCC2", "fulfilled"),
    ("COC(=O)CN(C)CCOc1ccc(CN2C(=O)C(C(=O)Nc3ccc(C(F)(F)F)cc3-c3cc(C(F)(F)F)ncn3)=C(O)C3(CCCC3)N2C)c(F)c1F", "not fulfilled"),
    ("CN(CCOCCC(=O)N(C)C[C@H](O)[C@@H](O)[C@H](O)[C@H](O)CO)CCOc1ccc(CN2C(=O)C(C(=O)Nc3ccc(C(F)(F)F)cc3-c3cc(C(F)(F)F)ncn3)=C(O)C3(CCCC3)N2C)c(F)c1F", "not fulfilled"),
    ("COCCN1CCN(CCOc2ccc(CN3C(=O)C(C(=O)Nc4ccc(C(F)(F)F)cc4-c4cc(C(F)(F)F)ncn4)=C(O)C4(CCCC4)N3C)c(F)c2F)CC1", "not fulfilled"),
    ("COCCOCCOc1ccc(CN2C(=O)C(C(=O)Nc3ccc(C(F)(F)F)cc3-c3cc(C(F)(F)F)ncn3)=C(O)C3(CCC3)N2C)c(F)c1F", "not fulfilled"),
    ("CC(=O)N(C)CCN(C)CCOc1ccc(CN2C(=O)C(C(=O)Nc3ccc(C(F)(F)F)cc3-c3cc(C(F)(F)F)ncn3)=C(O)C3(CCC3)N2C)c(F)c1F", "not fulfilled"),
    ("COCCCN(C)C(=O)c1cc(CN2C(=O)C(C(=O)Nc3ccc(C(F)(F)F)cc3-c3cc(C(F)(F)F)ncn3)=C(O)C3(CCCC3)N2C)c(F)c(F)c1OCCN(C)CCOC", "not fulfilled"),
    ("COCC(C)(C)N(C)CCOc1ccc(CN2C(=O)C(C(=O)Nc3ccc(C(F)(F)F)cc3-c3cc(C(F)(F)F)ncn3)=C(O)C3(CCC3)N2C)c(F)c1F", "not fulfilled"),
    ("COCC(C)(C)N(C)CCOc1ccc(CN2C(=O)C(C(=O)Nc3ccc(C(F)(F)F)cc3-c3cc(C(F)(F)F)ncn3)=C(O)C3(CCCC3)N2C)c(F)c1F", "not fulfilled"),
    ("COCCN(C)CCOCCOc1ccc(CN2C(=O)C(C(=O)Nc3ccc(C(F)(F)F)cc3-c3cc(C(F)(F)F)ncn3)=C(O)C3(CCCC3)N2C)c(F)c1F", "fulfilled"),
    ("CN(C)CC(C)(C)COc1ccc(CN2C(=O)C(C(=O)Nc3ccc(C(F)(F)F)cc3-c3cc(C(F)(F)F)ncn3)=C(O)C3(CCCC3)N2C)c(F)c1F", "fulfilled"),
    ("COCCN(C)CCOCCOCCOCCOc1ccc(CN2C(=O)C(C(=O)Nc3ccc(C(F)(F)F)cc3-c3cc(C(F)(F)F)ncn3)=C(O)C3(CCCC3)N2C)c(F)c1F", "fulfilled"),
    ("CN1N(Cc2ccc(OCCCCCOC[C@H](O)CO)c(F)c2F)C(=O)C(C(=O)Nc2ccc(C(F)(F)F)cc2-c2cc(C(F)(F)F)ncn2)=C(O)C12CCC2", "fulfilled"),
    ("COC1(C)CN(CCOc2ccc(CN3C(=O)C(C(=O)Nc4ccc(C(F)(F)F)cc4-c4cc(C(F)(F)F)ncn4)=C(O)C4(CCC4)N3C)c(F)c2F)C1", "not fulfilled"),
    ("CN1N(Cc2ccc(OCC3CCCO3)c(F)c2F)C(=O)C(C(=O)Nc2ccc(C(F)(F)F)cc2-c2cc(C(F)(F)F)ncn2)=C(O)C12CCCC2 (stereo not shown)", "not fulfilled"),
    ("CN1CCC(Oc2ccc(CN3C(=O)C(C(=O)Nc4ccc(C(F)(F)F)cc4-c4cc(C(F)(F)F)ncn4)=C(O)C4(CCC4)N3C)c(F)c2F)CC1", "not fulfilled"),
    ("COCCN(C)CCN(c1ccc(CN2C(=O)C(C(=O)Nc3ccc(C(F)(F)F)cc3-c3cc(C(F)(F)F)ncn3)=C(O)C3(CCCC3)N2C)c(F)c1F)C(C)C", "not fulfilled"),
]

---

Biological target: human NaPi-IIb (Homo sapiens)
Construct: expressed in transfected cells
Test: Inhibitory effect on 33PO4 uptake into human NaPi-IIb-expressing CHO cells
Format: cell-based
Settings: read-out: IC50
Experimental: Test Example 2: Inhibitory Effect on PO4 Uptake into Human NaPi-IIb-Expressing Cell CHO cells were transfected with human NaPi-IIb expression plasmids, and a stably human NaPi-IIb-expressing cell line was obtained using G418. The human NaPi-IIb-expressing cells were inoculated to a 96-well plate and incubated overnight in a CO2 incubator. […] After washing with ice-cold buffer A, a liquid scintillator was added to each reaction mixture, and the amount of ^33PO4 uptake was measured using TopCount.
Reported IC50 by item:

# structure.smiles, u, IC50
measured = [
    ("C[C@]12CCCN1N(Cc1ccc(F)cc1F)C(=O)C(C(=O)Nc1cc(F)c(Br)c(F)c1)=C2O", "µM", 16.5),
    ("COc1cccc(-c2cc(C(F)(F)F)ccc2NC(=O)C2=C(O)[C@@]3(C)CCCN3N(Cc3ccc(OC4CCOCC4)c(F)c3F)C2=O)c1OC", "µM", 12.8),
    ("C[C@]12CCCN1N(Cc1ccc(OCCCCOC[C@H](O)CO)c(F)c1F)C(=O)C(C(=O)Nc1ccc(Cl)cc1-c1ccc(C(F)(F)F)nc1)=C2O", "µM", 16),
]

Where these numbers come from: patent US9499553B2
